Please provide measured AUC(0-t) at 24 h for the entries that follow.
assay-explanation: AUCt in Sprague-Dawley rat at 1 mg/kg, iv and measured upto 24 hrs by LC-MS analysis
Type: ADME, organism-based
Parameters: dose 1 mg/kg, time < 24 hrs, route iv
stated-conditions: in vivo
Form field: result (number plus unit)

Fill in: AUC(0-t) at 24 h of COc1cccc(C(=O)N2Cc3c(N4CCOC[C@H]4C)nc(-c4cccc5[nH]ccc45)nc3C2(C)C)c1 is ___
835 ng·h/mL

Fill in: AUC(0-t) at 24 h of C[C@@H]1COCCN1c1nc(-c2cccc3[nH]ccc23)nc2c1CN(C(=O)c1ccc3c(c1)OCO3)C2(C)C is ___
2740 ng·h/mL

Fill in: AUC(0-t) at 24 h of C[C@@H]1COCCN1c1nc(-c2cccc3[nH]ccc23)nc2c1CN(C(=O)c1cccc(S(C)(=O)=O)c1)C2(C)C is ___
1160 ng·h/mL

Fill in: AUC(0-t) at 24 h of COc1ccc(C(=O)N2Cc3c(N4CCOC[C@H]4C)nc(-c4cccc5[nH]ccc45)nc3C2(C)C)cc1 is ___
1440 ng·h/mL

Fill in: AUC(0-t) at 24 h of C[C@@H]1COCCN1c1nc(-c2cccc3[nH]ccc23)nc2c1CN(C(=O)c1ccc(S(C)(=O)=O)cc1)C2(C)C is ___
603 ng·h/mL

----------
assay-explanation: in vitro
stated-conditions: human, liver microsomes
assay-metric: half-life at 1 h, 1 µM (min)
Number only, in min; omit the unit.

Fill in: half-life at 1 h, 1 µM of C[C@@H]1COCCN1c1nc(-c2cccc3[nH]ccc23)nc2c1CN(C(=O)c1cccc(S(C)(=O)=O)c1)C2(C)C is ___
3.4

Fill in: half-life at 1 h, 1 µM of COc1cccc(C(=O)N2Cc3c(N4CCOC[C@H]4C)nc(-c4cccc5[nH]ccc45)nc3C2(C)C)c1 is ___
26.8

Fill in: half-life at 1 h, 1 µM of CCC(=O)N1CCc2c(N3CCOC[C@H]3C)nc(-c3cccc4[nH]ccc34)nc2C1(C)C is ___
6.7

Fill in: half-life at 1 h, 1 µM of C[C@@H]1COCCN1c1nc(-c2cccc3[nH]ccc23)nc2c1CN(C(=O)c1ccc3c(c1)OCO3)C2(C)C is ___
26.1

Fill in: half-life at 1 h, 1 µM of CC(=O)c1cccc(C(=O)N2Cc3c(N4CCOC[C@H]4C)nc(-c4cccc5[nH]ccc45)nc3C2(C)C)c1 is ___
4.11

Fill in: half-life at 1 h, 1 µM of CC(C)C(=O)N1CCc2c(N3CCOC[C@H]3C)nc(-c3cccc4[nH]ccc34)nc2C1(C)C is ___
2.82

Fill in: half-life at 1 h, 1 µM of CC(=O)N1CCc2c(N3CCOC[C@H]3C)nc(-c3cccc4[nH]ccc34)nc2C1(C)C is ___
11.3

Fill in: half-life at 1 h, 1 µM of C[C@@H]1COCCN1c1nc(-c2cccc3[nH]ccc23)nc2c1CCN(C(=O)c1ccccc1)C2(C)C is ___
24.5

Fill in: half-life at 1 h, 1 µM of CC(=O)c1ccc(C(=O)N2Cc3c(N4CCOC[C@H]4C)nc(-c4cccc5[nH]ccc45)nc3C2(C)C)cc1 is ___
4.94

Fill in: half-life at 1 h, 1 µM of C[C@@H]1COCCN1c1nc(-c2cccc3[nH]ccc23)nc2c1CN(C(=O)c1ccc(S(C)(=O)=O)cc1)C2(C)C is ___
25.7

Fill in: half-life at 1 h, 1 µM of C[C@@H]1COCCN1c1nc(-c2cccc3[nH]ccc23)nc2c1CCN(C(=O)c1cccc(F)c1)C2(C)C is ___
7.76

Fill in: half-life at 1 h, 1 µM of COc1ccc(C(=O)N2Cc3c(N4CCOC[C@H]4C)nc(-c4cccc5[nH]ccc45)nc3C2(C)C)cc1 is ___
9.46
